meta.source: ChEMBL document CHEMBL1144854

# Test system: Human immunodeficiency virus 1
# assay_text: Antiviral activity against HIV1 3B infected in MT4 cells by MTT
# Format: functional, organism-based
# condition_parameters: Human immunodeficiency virus 1, 3B
Label criterion met when EC50 is strictly below 200 nM; at or above that, label criterion not met.

Examples with answers:
{"columns": ["structure_smiles_string", "assay_target", "label"],
 "data": [
  ["CCc1c(Cc2cccc(Br)c2)nc(SCC(=O)c2ccc(OC)cc2)[nH]c1=O", "Human immunodeficiency virus 1", "criterion met"],
  ["CCc1c(Cc2cc(C(F)(F)F)cc(C(F)(F)F)c2)nc(SCC(=O)c2ccc(OC)cc2)[nH]c1=O", "Human immunodeficiency virus 1", "criterion not met"],
  ["CCc1c(Cc2ccccc2Br)nc(SCC(=O)c2ccc(OC)cc2)[nH]c1=O", "Human immunodeficiency virus 1", "criterion met"],
  ["CCc1c(Cc2ccc(Br)cc2)nc(SCC(=O)c2ccc(OC)cc2)[nH]c1=O", "Human immunodeficiency virus 1", "criterion not met"],
  ["COc1ccc(C(=O)CSc2nc(Cc3ccccc3Br)c(C)c(=O)[nH]2)cc1", "Human immunodeficiency virus 1", "criterion not met"]
]}

Below 200 nM on EC50? Entry CCc1c(C(c2ccccc2)c2ccccc2)nc(SCC(=O)c2ccc(OC)cc2)[nH]c1=O
criterion not met

Continue with COc1ccc(C(=O)CSc2nc(Cc3cccc(Br)c3)c(C)c(=O)[nH]2)cc1
criterion not met

Continue with CC(C)Nc1cccnc1N1CCN(C(=O)c2cc3cc(NS(C)(=O)=O)ccc3[nH]2)CC1
criterion met

Continue with Cc1c(Cc2cccc3ccccc23)nc(SCC(=O)c2ccccc2)[nH]c1=O
criterion not met
